Readout type: melting point

In the examples that follow, each entry is paired with its recorded melting point.
O=C(O)CCC(=NO)c1ccc(-c2ccc(Cl)cc2F)cc1 :: 148 to 150 °C
OC(Cn1cncn1)(c1ccc(F)cc1)C1(Cl)CC1 (stereo not drawn) :: 121 °C
Cc1ccc([N+](=O)[O-])c(=O)[nH]1 :: 222 to 223 °C
CC(=O)OC1CC2C=CC3C4CCC(C(C)CCCC(C)C)C4(C)CCC3C2(C)C(OC(C)=O)C1 (stereo not drawn) :: 116 to 118 °C
CCc1cc2c(ccc(=O)n2Cc2ccc(Oc3ccccc3CC(=O)O)cc2)c(CC)n1 :: 211 to 215 °C
CC=CCn1c(C(=O)c2cc(C)cc(C#N)c2)c(C(C)C)c(=O)[nH]c1=O :: 177 to 178 °C

// melting point lookup, compound = "CCCCCCCCCCCCCCCCCCC(CO)CO" , result: 88 °C

According to the records, this compound "CN1CCCc2cc(Cc3cnc(N)nc3N)ccc21" displays melting point of 190 to 191 °C

melting point reading for "O=C(Nc1ccc(-n2nc(C(F)(F)F)cc2C2CC2)c(F)c1)c1c(F)cccc1F" : 193 to 196 °C

Lab note: "COc1cc(COc2nn(-c3ccccc3)cc2-c2cnco2)ccc1OCc1nc(-c2ccco2)oc1C" gave melting point of 153 to 154 °C

// melting point lookup, compound = "Cc1nc2c(N)cc(C(=O)N(C)C)cc2n1C" , result: 230 to 234 °C

Per the record, COC(=O)C1=C(C)NC(C)=C(C(=O)OCCCl)C1c1cccc(Br)n1 (stereo not drawn) has melting point of 152 to 153 °C

The compound listed as "O=c1[nH]c2cc([N+](=O)[O-])sc2[nH]c1=O" shows melting point equal to > 300 °C
